Could you please report measured Ki for the items listed next?
study-system: Trypanosoma cruzi
protocol-conditions: sf9
API: value field is a number in µM; no unit string.

What value of measured Ki is listed for OB(O)c1ccccc1 ? 860

What value of measured Ki is listed for [Cl-].[Na+] [SODIUM CHLORIDE] ? 810

What value of measured Ki is listed for O=S([O-])O.[Na+] [SODIUM BISULFITE] ? 910

What value of measured Ki is listed for O=BOB(O)OB(O)OB=O [SODIUM TETRABORATE] ? 24300

What value of measured Ki is listed for O=S(=O)(O)OOS(=O)(=O)O [SODIUM PERSULFATE] ? 840

What value of measured Ki is listed for [F-].[Na+] [SODIUM FLUORIDE] ? 900

What value of measured Ki is listed for O=NO [SODIUM NITRITE] ? 700

What value of measured Ki is listed for O=S(=O)(O)ONOS(=O)(=O)O [SODIUM IMINODISULFATE] ? 7100

What value of measured Ki is listed for O=C([O-])O.[Na+] [SODIUM BICARBONATE] ? 580

What value of measured Ki is listed for O=S(=O)(O)OS(=O)(=O)O [SODIUM PYROSULFATE] ? 760

What value of measured Ki is listed for N#CO [SODIUM CYANATE] ? 80

What value of measured Ki is listed for O=[Se](=O)(O)O [SODIUM SELENATE] ? 660

What value of measured Ki is listed for NS(=O)(=O)O [SULFAMATE] ? 10600

What value of measured Ki is listed for N#C[SeH] [SODIUM SELENOCYANATE] ? 780

What value of measured Ki is listed for [N-]=[N+]=[N-] [SODIUM AZIDE] ? 1120

----------
study-system: Trypanosoma cruzi
protocol-conditions: sf9
observed-property: pKi
// pKi is dimensionless: -log10 of concentration (M)

What value of measured pKi is listed for O=[N+]([O-])[O-].[Na+] [SODIUM NITRATE] ? 3.11

What value of measured pKi is listed for S [SODIUM HYDROSULFIDE] ? 4.11

What value of measured pKi is listed for O=[Te](=O)(O)O [SODIUM TELLURATE] ? 3.15

What value of measured pKi is listed for [I-].[Na+] [SODIUM IODIDE] ? 4.36

What value of measured pKi is listed for CCN(CC)C(=S)S [DITIOCARB SODIUM] ? 5.30

What value of measured pKi is listed for O=C([O-])[O-].[Na+].[Na+] [SODIUM CARBONATE] ? 3.16

What value of measured pKi is listed for O=S(=O)([O-])[O-].[Na+].[Na+] [SODIUM SULFATE ANHYDROUS] ? 2.16

What value of measured pKi is listed for NS(N)(=O)=O [SULFAMIDE] ? 3.92

What value of measured pKi is listed for O=[As](O)(O)c1ccccc1 ? 3.21

What value of measured pKi is listed for [Br-].[Na+] [SODIUM BROMIDE] ? 3.14
